experiment: Hydrolysis in rat skin S9 fraction; format: in vitro ADME; conditions: hydrolysis of caproyl-PL in rat skin S9; read-out: Km value
measured-parameter: Km

Short answer for CCCCCC(=O)OC(CNC(C)C)COc1cccc2ccccc12.Cl (stereo not shown) [Caproyl-PL, O-caproyl-PL hydrochloride] : Km was 19.7 µM

###

Experiment: Hydrolysis in rat liver microsomes
Type: in vitro ADME
Conditions: liver microsomes 20 μg/mL for PNPA, 10 μg/mL for PNPB, pH 7.4
Procedure: The excised liver, kidney, and testis were washed with ice-cold 0.15 M KCl, and finely minced using scissors. Minced tissues were homogenized with 3 volumes of 50 mM HEPES buffer (pH 7.4) containing 0.15 M KCl in a Potter–Elvehjem glass homogenizer equipped with a Teflon pestle under ice-cold conditions. Homogenates (25% wet w/v) were centrifuged at 9000g for 20 min at 4 °C, to give the S9 fraction. […] Protein concentrations were determined by the method of Bradford using BSA as standard. […]
measured-parameter: Km (µM)
Number only, in µM; omit the unit.

Measured Km, CCCC(=O)Oc1ccc([N+](=O)[O-])cc1 [PNPB, p-nitrophenylbutyrate] : 37.1

###

experiment: Hydrolysis in rat testis microsomes; assay type: in vitro ADME; conditions: testis microsomes 10 μg/mL for PNPA, 5 μg/mL for PNPB, pH 7.4
measured-parameter: Km (µM)
Unit µM implied. Number only.

Looking up CCCC(=O)Oc1ccc([N+](=O)[O-])cc1 [PNPB, p-nitrophenylbutyrate] , I see its Km listed as 63.4

###

Test: Hydrolysis in rat skin S9 fraction
Assay type: in vitro ADME
Settings: hydrolysis; skin S9 300 μg/mL, 50 mM HEPES pH 7.4, 37 °C; mean ± S.D. (n = 3/4); read-out: Km
Procedure: After hair was carefully clipped and shaved, rats were sacrificed by exsanguination under ether anesthesia. Abdominal and dorsal skin was removed using a scalpel and dissection scissors. A few pieces of skin were stored in liquid nitrogen for extraction of total RNA. […] Protein content was determined by the method described by Bradford using bovine serum albumin (BSA) as standard. […]
measured-parameter: Km
State the value with its unit after it.

# Km of CCCC(=O)Oc1ccc([N+](=O)[O-])cc1 [PNPB, p-nitrophenylbutyrate] = 97.1 µM

###

test: Hydrolysis in rat liver microsomes; type: in vitro ADME; settings: rat, liver microsomes 20 μg/mL for PNPA, 10 μg/mL for PNPB, pH 7.4
measured-parameter: Km (µM)
All answers are understood in µM, so give the number only.

Just so you know, measured Km for CC(=O)Oc1ccc([N+](=O)[O-])cc1 [PNPA, p-nitrophenylacetate] came out at 57
